Known The normalized value in BLU units (SPOT analysis, Myo5 SH3) of a selection of sequences
- Tested on: Myo5 SH3 domain
- procedureDetails: SPOT analysis of cellulose-bound peptides (WISE), Myo5 SH3 domain (Dataset S4)
- Type: binding, Saccharomyces cerevisiae
- measurementConditions: SPOT analysis of membrane-synthesized peptides probed with Myo5 SH3 domain; normalized value
State the answer as a number, implicitly in BLU.

# count of solved cases: 5
{"chain": "NELIKQGPKRPTSA", "measuredNumber": 175.5}
{"chain": "GKDHRLAPNGPGMH", "measuredNumber": 217.5}
{"chain": "MDKFRIPPKSPNIE", "measuredNumber": 222.0}
{"chain": "NYHHRETPPPPPSN", "measuredNumber": 317.8}
{"chain": "QTVIKTHPRIPKSE", "measuredNumber": 186.2}

Q: // The normalized value in BLU units (SPOT analysis, Myo5 SH3) lookup, key: KITKKLGPKLPKAS
A: 680.7

Q: Could you do the same for KHEPKKSPTTPALA , please?
A: 726.2
